system.name: cGMP-specific 3',5'-cyclic phosphodiesterase (Bos taurus)
test.summary: Optimum inhibitory concentration required to inhibit c-GMP specific Phosphodiesterase 5 (PDE5) of bovine lung
pIC50: −log10 of the molar value.
property: pIC50

Solved entries (count: 4):
- item.smiles: "CC(C)CCCc1nc2c([nH]1)N1C[C@@H](C(C)C)N=C1N(C)C2=O"
  pIC50: 8.22
- item.smiles: "CC(C)CCc1nc2c([nH]1)N1C[C@@H](C(C)C)N=C1N(C)C2=O"
  pIC50: 7.66
- item.smiles: "CCCC(CCC)c1nc2c([nH]1)N1C(=N[C@@H]3CCC[C@@H]31)N(C)C2=O"
  pIC50: 6.82
- item.smiles: "CCCCCc1nc2c([nH]1)N1C(=N[C@@H]3CCC[C@@H]31)N(C)C2=O"
  pIC50: 7.40

(a) CCCCc1nc2c([nH]1)N1C(=N[C@@H]3CCC[C@@H]31)N(C)C2=O
(b) CCCCCCCc1nc2c([nH]1)N1C(=N[C@@H]3CCC[C@@H]31)N(C)C2=O
(c) CCc1nc2c([nH]1)N1C(=N[C@@H]3CCC[C@@H]31)N(C)C2=O
Query: Please produce an ascending ranking of these molecules based on pIC50. Form field (ranking): labels in requested order.
Response: c, a, b

Values were extracted from ChEMBL document CHEMBL1131701.
